experimental.protocol: protein stability index of a GFP-peptide fusion (GPS, HEK-293T) (PSI 1-6); higher = more stable;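 note: 24-mer peptide tiles fused after GFP, lentivirally expressed, FACS-sorted into six equal bins by GFP/DsRed ratio, decoded by Illumina sequencing, PSI is the read-weighted mean bin number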
condition.summary: treatment: MLN4924 1 uM, 8 h; c terminus: a fixed tail appended
metric.name: protein stability index
Returns: the value as a bare number; no unit string appended.

The examples below pair each entry with its known result.
macromolecule.sequence	protein stability index
LQNTYMGYLDYRKKAIKDLGISPS [GLT8D2]	2.91
GSLSLSFEREPSTSDLGTTDVQKK [RIPK4]	5.31
PARDYSQYYRTIEELQNKILTATV [KRT17]	2.34
KRAESDSRKSSIPNNKEIPSHHPT [PTPRD]	5.08
FHLAPARAGHHPNQYATCRLCGRQ [ZBED2]	3.14
ACLLQLAEIQEACCEFLKRQLDPS [KLHL20]	2.16

**Q:** # query: protein stability index of entry QMTNIGVYVSNMTDKLVTPGKYFS [IQUB]
**A:** 2.49

**Q:** // lookup protein stability index for LNRATQSIERSHRIATETDQIGSE [VTI1B]
**A:** 5.34

====

experimental.protocol: protein stability index of a GFP-peptide fusion (GPS, HEK-293T) (PSI 1-6); higher = more stable
condition.summary: treatment: MLN4924 1 uM, 8 h; c terminus: a fixed tail appended
Binned protein stability index; ranges: c1 = under 3, c2 = from 3 up to 5, c3 = 5 and over

macromolecule.sequence	assigned.label
LVALKCTCCYFKFIIEYYNIRPAD [FBXO34]	c1

**Q:** Which category does the recorded protein stability index put GPDGQEMDPPNPEEVKTPEEEMRS [GAGE1] in?
**A:** c3

**Q:** Class label required: LWKMKPRRNLEEDDYLHKDTGETS [STEAP1]
**A:** c2

**Q:** Bin this entry: IWSEVFTVEKPGGKKVAVVLMDTQ [ATL3]
**A:** c1

**Q:** Please classify: MGPKTLPQLAGKWQVLCMLSLCCW [PCDHGC5]
**A:** c2

**Q:** Form field 'band' for AECALNERGVEGDFLIRDSESSPS [NCK2]
**A:** c3

**Q:** Just checking, what class would you give AAFEEFDTDRDGYISHRELGDCMR [CABP4] here?
**A:** c2

**Q:** Record MLLPQLCWLPLLAGLLPPVPAQKF [SMOC2] — which class?
**A:** c2

====

experimental.protocol: protein stability index of a GFP-peptide fusion (GPS, HEK-293T) (PSI 1-6); higher = more stable
condition.summary: treatment: DMSO; c terminus: a fixed tail appended
metric.name: protein stability index
Note: the reply should be a number with no unit written.

As a guide, the following entries are already answered.
macromolecule.sequence	protein stability index
SVSQDFPGSNLNLLTNNSGTPKDH [ETS2]	4.8
GYLVTKVVAVDRDSGQNAWLSYRL [PCDHGA10]	2.6
HKLVSASTDNIVSQWDVLSGDCDQ [RBBP5]	4.73
PYVCHAELNAIMNKNSTDVKGCSM [DCTD]	3.41
RGHQNWVYSCAFSPDSSMLCSVGA [WSB1]	2.07
KGTENLQRAQAEVLQSVRELSRSR [FCHSD1]	4.61
SRKGELTPLPETGYWRVRLWNGDK [TRIM39]	2.63
SLGGIRACTLTVFPPEETTPSPSR [KLHL13]	3.63
KQLALDHFKKTKKMGGKDFSFRYQ [ATL3]	2.86
LDITNPKAVLENALRNFACLTTGD [UFD1]	2.65

**Q:** # lookup: protein stability index of VHKTKEQFGQDGPISVHCSAGVGR [PTPRD]
**A:** 4.02
